# Test system: MEF A1-2A-BIM cells, caspase 3/7 luminescence, 3 h
# procedure-summary: inducers of caspase signal in A1-dependent MEFs – cell-based, luminescence, retest, A1 inhibitor project, dose response (AID 2765)
Active and inactive are the calls of the source.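 Rule for the calls: active = half-maximal concentration for the rise in caspase light signal at or below ten times the top tested dose; inconclusive = flat fit between 30% and 70% activity, or unreliable curve fit; inactive = the rest.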
Select the correct class. Options are active, inactive and nothing else.

Please let me know the test result on file for Cc1cccc(Nc2nc(N)c([N+](=O)[O-])c(N3CCCC(C)C3)n2)c1 (stereo unspecified) .
inactive

Hi, sorry to bother you, what did the test record for COC(=O)c1ccc2c(c1)C(C)(C)C(/C=C/c1ccc(O)cc1)=[N+]2C ?
active

Each compound tested received a call. Report the one for Cc1nc(-c2ccc(F)cc2)c(CC(=O)N(C)CC(=O)Nc2ccccc2Cl)s1 .
inactive

// param item: Nc1ccccc1SC(C[N+](=O)[O-])c1ccccc1 (stereo unspecified) ; yields the recorded call
inactive

Hey, what did the test say about COc1ccc(CCNCC(C)c2ccccc2)cc1 (stereo unspecified) ?
inactive

Check the results log: what was the call for CC(C)=C1C2C=CC1C1C(=O)N(c3ccc4c(c3)OCO4)C(=O)C21 (stereo unspecified) ?
inactive

----------
# Test system: MEF A1-2A-BIM cells, caspase 3/7 luminescence, 3 h
# procedure-summary: inducers of caspase signal in A1-dependent MEFs – cell-based, luminescence, retest, A1 inhibitor project, dose response (AID 2765)
Activity calls are given as the source filed them.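 Rule for the calls: active = half-maximal concentration for the rise in caspase light signal at or below ten times the top tested dose; inconclusive = flat fit between 30% and 70% activity, or unreliable curve fit; inactive = the rest.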
Pick one and only one: label 1 for active, label 0 for inactive

// outcome(item) with item = Cc1cc(C)n(CCC(=O)N/N=C/c2ccc(Cl)c([N+](=O)[O-])c2)n1
label 0

Any idea what this test logged for CS(=O)(=O)c1ncc(Cl)c(C(=O)Nc2ccc(N3CCOCC3)cc2)n1 ?
label 0

Could you kindly confirm the outcome this assay logged for O=C(Nc1ccc(Br)cn1)c1cccc2c1-c1ccccc1C2=O ?
label 0

Outcome? O=C(Nc1nnc(C2CCCCC2)s1)C1CC(=O)N(c2ccc(F)cc2)C1 (stereo not drawn)
label 0

State the result this test recorded for COc1cc(OC)cc(C(=O)Nc2ccc(S(=O)(=O)N3CCOCC3)cc2)c1 .
label 0

Per the assay record, what outcome was assigned to Cc1ccc(S(=O)(=O)NCC(=O)OC2CCOC2=O)cc1 (stereo not drawn) ?
label 0

Answer briefly: the call reported for CC1=NNC(=O)/C1=C\c1cn(-c2ccccc2)nc1-c1ccccc1 in this assay.
label 1

I'd appreciate the recorded outcome for COc1oc(-c2ccccc2)nc1C(F)(F)F from this test.
label 0

What classification did O=C(CCCOc1ccc(Cl)cc1Cl)Nc1ncccn1 end up with in this test?
label 0

Dear colleague, could you share the recorded outcome for CCOCCCNC(=O)c1ccc2c(c1)N=C(CC)c1cc(Br)ccc1S2 when you have a moment?
label 0

Could you please tell me the result logged for CC(CC(=O)N1CCN(c2cccc(Cl)c2)CC1)S(=O)(=O)c1ccc2c(c1)NC(=O)CO2 (stereo not drawn) in this assay?
label 0

Hello, I am checking results. What call was entered for CCOC(=O)CCC(=O)Nc1ccc(S(=O)(=O)N2CCC(C)CC2)cc1 ?
label 0

Record request — test call for O=C(O)c1cccc(CSc2nc(-c3ccc(Cl)cc3)cc(C(F)(F)F)n2)c1
label 0

Called result for CCCNC(=O)c1ccc2c(=O)c(O)c(-c3ccsc3)[nH]c2c1
label 0

Query: recorded result category for O=C(CN1C(=O)c2ccccc2S1(=O)=O)N1CCN(Cc2ccc3c(c2)OCO3)CC1 in this test
label 0

Identify the outcome logged in this assay for the compound shown: CCCCCCCC/C=C\CCCCCCCC(=O)O
label 0

State the result this test recorded for CC1CCCN(C(=O)CN2C(=O)C(C)Oc3ccccc32)C1 (stereo not drawn) .
label 0

Hello, I am checking results. What call was entered for CC(=O)N1CCN(C2c3cccc4cccc(c34)C2NS(=O)(=O)c2ccccc2)CC1 (stereo not drawn) ?
label 0

Outcome logged for CCCCNC(=S)N/N=C/c1ccc(OCC(=O)Nc2c(C)cc(C)cc2C)c(OC)c1 in this assay:
label 0

Can you look up the reported call for CCOc1ccccc1CNC(=O)Cn1nc(C)c2c(C)n(-c3ccc(C)cc3)nc2c1=O for me?
label 0

Could you please tell me the result logged for COc1cc(/C=C2/C(=N)N3C=CSC3=NC2=O)ccc1OCCCOc1cc(C)ccc1C in this assay?
label 1

Assay result, entry CN(C)CC#CCCCCCCC#CCN(C)C — outcome?
label 0

Per the records of this test, what outcome belongs to O=C1N/C(=C/c2ccc(N3CCOCC3)o2)C(=O)N1c1cccc(Cl)c1 ?
label 0

Call for entry O=C(OCn1ncc(Cl)c(Cl)c1=O)c1cccc(C(F)(F)F)c1 :
label 0

# fetch the recorded call for Cc1ccc(N=C2C(=O)Nc3ccccc32)cc1 here
label 0

What did this assay record as the result for CC(C)(C)[C@H](N)C(=O)N[C@H]1CCC2C3CC=C4C[C@@H](O)CC[C@]4(C)C3CC[C@@]21C (stereo partly drawn) ?
label 0

# fetch the recorded call for Cn1cnnc1SCC(=O)Nc1ccc(F)cc1 here
label 0

Assay outcome for O=C(c1ccco1)N1CCN(C(=O)c2cc(-c3ccccn3)nc3ccc(Cl)cc23)CC1 : what was it?
label 0

// return assay outcome for COc1ccc2c(c1)c(=O)c(C(=O)c1ccc(F)cc1)cn2CC(=O)Nc1ccc(F)cc1
label 0

Answer briefly: the call reported for COc1cc(C(=O)NCc2cc(C)nc3ccccc23)cc(OC)c1OC in this assay.
label 0

What did the test return for Cc1ccc(CS(=O)(=O)c2ncc(Cl)c(C(=O)Nc3ccc(OC(F)F)cc3)n2)cc1 ?
label 0

# fetch the recorded call for N[C@@]1(C(=O)O)CC[C@@H](C(=O)O)C1 here
label 0

Recorded test call requested for OC(COc1ccc2ccccc2c1Br)Cn1ccnc1 (stereo not drawn)
label 0

Which outcome was entered for the compound c1ccc2c(CNc3ccc(CNc4ncn[nH]4)cc3)cccc2c1 in this test?
label 0

Would you mind telling me which call this test gave NS(=O)(=O)c1ccc(-c2ccc(/C=C3\C(=O)Nc4ccccc43)o2)cc1 ?
label 0

Which outcome was assigned to Cc1[nH]c(=S)c(C#N)c(C)c1Cc1ccc(Cl)cc1Cl in this test?
label 0

Query: recorded result category for CSc1nc(N)c(N=Nc2ccc([As](=O)(O)O)cc2)c(=O)[nH]1 in this test
label 0

Record request — test call for COc1ccc(N2CC(C(=O)N[C@H](C(=O)NC(C)c3ccccc3)C(C)C)CC2=O)cc1 (stereo partly drawn)
label 0

Called result for O=C(Nc1ccc([N+](=O)[O-])cn1)c1cc(-c2cccc(Br)c2)nc2ccccc12
label 0

Recorded call for O=C(Nc1ccc(S(=O)(=O)N2CCOCC2)cc1)c1ccco1 ?
label 0

I'd appreciate the recorded outcome for CCCOc1ccc(N2C(=O)C3ON(c4ccccc4)C(CCC)C3C2=O)cc1 (stereo not drawn) from this test.
label 0

For O=[N+]([O-])c1ccc(N2CCCC2)c(F)c1Br , which call appears in the assay record?
label 0

Could you please tell me the result logged for Cc1ccc(C)c(N(C(=O)CCC(=O)Nc2cc(C)on2)C(C(=O)NC2CCCC2)c2ccco2)c1 (stereo not drawn) in this assay?
label 0

----------
# Test system: MEF A1-2A-BIM cells, caspase 3/7 luminescence, 3 h
# procedure-summary: inducers of caspase signal in A1-dependent MEFs – cell-based, luminescence, retest, A1 inhibitor project, dose response (AID 2765)
Activity calls are given as the source filed them.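 How the source made its calls: active means half-maximal concentration for the rise in caspase light signal at or below ten times the top tested dose; inconclusive means flat fit between 30% and 70% activity, or unreliable curve fit; inactive means the rest.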
Thanks in advance; please answer with one of these: active, inactive

GET /call?item= CC1=NOC(=O)/C1=C\c1ccc(-c2cccc(Cl)c2)o1 returns the recorded outcome of this test.
inactive

I would be grateful if you could indicate the recorded call for C[C@H](CO)N1C[C@H](C)[C@@H](CN(C)CC2CCCCC2)Oc2c(NS(=O)(=O)c3cccs3)cccc2C1=O .
inactive

How did this test come out for CCOCCCNC(=O)C1(O)c2cc(Br)ccc2NC(=O)N1c1ccc(CC)cc1 (configuration not stated) ?
inactive

Which outcome was entered for the molecule COC(=O)c1c(NC(=O)C2CC(C)=C(C)CC2C(=O)O)sc2c1CCCCC2 (configuration not stated) in this test?
inactive

# lookup: test call for Cc1ccc(C(=O)N/C(=C\c2sccc2C)C(=O)NCCCN2CCOCC2)cc1
inactive

# lookup: test call for CN(C)C/C=C(\c1ccc(Br)cc1)c1cccnc1
inactive

Dear all, I need the recorded test outcome for COC(=O)c1ccc(CNC(=O)C2CCC(=O)N(CCc3ccccc3)C2)cc1 (configuration not stated) , thank you.
inactive

Record lookup: outcome of this test for O=c1c(O[C@@H]2O[C@H](CO)[C@@H](O)[C@H](O)[C@H]2O)c(-c2ccc(O)cc2)oc2cc(O)cc(O)c12 ?
inactive

For COc1cc(CN2CCc3ccccc3C2)ccc1O , what call appears in the results of this test?
inactive

Which outcome did this test record for the molecule Cc1ccc(NC(=O)CN(C)S(=O)(=O)c2cnc[nH]2)c(C)c1 ?
inactive

Check the results log: what was the call for O=C1Nc2ncccc2OC1CCO (configuration not stated) ?
inactive

// outcome(item) with item = OC(Cn1cncn1)(Cn1cncn1)c1ccc(F)cc1F
inactive

Answer briefly: the call reported for CC(C(=O)N(C)c1ccccc1)N1CCN(C(=O)c2ccccc2)CC1 (configuration not stated) in this assay.
inactive

Could you check what this test reported for Cc1ccc(-c2csc(N=C(N)N)n2)cc1 ?
inactive

Per the assay record, what outcome was assigned to COc1ccc(/C=C/C(=O)NC(=S)NCCc2ccc(OC)c(OC)c2)cc1 ?
inactive

Name the outcome recorded for CC(C)C[C@H](NC(=O)N1CCn2c1nc1ccccc12)C(=O)NCc1ccccc1 in the assay.
inactive

I would be grateful if you could indicate the recorded call for FC(F)(F)c1ccc(Cl)c(NC2=NCCCCC2)c1 .
inactive

I would be grateful if you could indicate the recorded call for CCOC(=O)/C=c1\s/c(=C\c2ccc(C(=O)OC)cc2)c(=O)n1CC(=O)Nc1ccccc1 .
inactive

So what was the verdict on COC(=O)c1ccc2c(c1)C(C)(C)C(/C=C/c1ccccc1O)=[N+]2C in this test?
active

// return assay outcome for O=C(O)CN1C(=O)C2C3CC(C2C1=O)C1C(c2ccccc2)c2sc(=O)[nH]c2SC31 (configuration not stated)
inactive

Which outcome was entered for the molecule CCn1c(SCC(=O)c2ccccc2)nnc1-c1cc2cc(Br)ccc2o1 in this test?
inactive

Assay result, entry CCOCCOC(=O)c1[nH]c2c(c1C)C(=O)CC(c1cccs1)C2 (configuration not stated) — outcome?
inactive
